Molecular target: T1, Cyno TIGIT-Fc (cynomolgus, UniProt A0A7N9I9V4 89-209)
T1 construct: not shown: Fc part
T1 sequence (A0A7N9I9V4 entry or part of it): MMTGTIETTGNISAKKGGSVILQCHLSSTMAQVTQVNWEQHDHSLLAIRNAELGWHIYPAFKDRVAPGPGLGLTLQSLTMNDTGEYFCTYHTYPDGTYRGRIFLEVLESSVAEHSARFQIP
Assay: ForteBio BLI, Fab KD, monovalent
property-measured: Kd (nM)

INSERT INTO results (binder, val) VALUES
  ('Fab of anti-TIGIT clone 31288 (Fab, V domains shown, Fab) VH: QLQLQESGPGLVKPSETLSLTCTVSGGSISSGSYYLAWIRQPPGKGLEWIGSIFRSGSTYYNPSLESRVTISVDTSKNQFSLKLSSVTAADTAVYYCAIEGANFKDFGYVAFDIWGQGTTVTVSS VL: EIVMTQSPATLSVSPGERATLSCRASQSVSSNLAWYQQKPGQAPRLLIYGASTRATGIPARFSGSGSGTEFTLTISSLQSEDFAVYYCQQSPPWPRTFGGGTKVEIK', 25.1),
  ('Fab of anti-TIGIT clone 29520 (Fab, V domains shown) VH: QVQLVESGGGLVQPGRSLRLSCAASGFTFRDYAMHWVRQAPGKGLEWVSGITWNSGLIGYADSVKGRFTISRDNAKNSLYLQMNSLRAEDTALYYCAKPVPRLRGLDVWGQGTMVTVSS VL: DIQLTQSPSSVSASVGDRVTITCRASQGISSWLAWYQQKPGKAPKLLIYGASSLQSGVPSRFSGSGSGTDFTLTISSLQPEDFATYYCQQAFYLPWTFGGGTKVEIK', 2.68),
  ('Fab of anti-TIGIT clone 32919 (Fab, V domains shown, Fab) VH: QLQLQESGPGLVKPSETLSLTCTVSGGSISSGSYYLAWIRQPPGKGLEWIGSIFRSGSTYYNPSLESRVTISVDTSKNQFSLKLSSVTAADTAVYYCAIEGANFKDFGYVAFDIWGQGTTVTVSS VL: EIVLTQSPATLSLSPGERATLSCRASQSVSSYLAWYQQKPGQAPRLLIYDASNRATGIPARFSGSGSGTDFTLTISSLEPEDFAVYYCQQENPRPRTFGGGTKVEIK', 6.57);
